measured on: Insulin-degrading enzyme (Homo sapiens)
protocol summary: exo-site inhibitors of human IDE, primary screen, biochemical, fluorescence anisotropy, probe displacement (AID 1259349);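 further: His-tagged human IDE residues 42-1019 made in E. coli with 30 nM FL-6b probe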
experimental conditions: purified IDE, FL-6b probe fluorescence polarization; at 20 µM; active compounds read low
Hit rate of the full screen: of about 17,000 compounds, about 1,100 (6.5%) were called active. Shown is part of a subset that was picked to be rich in actives.
Labelling field: enter Met if recorded z-score is less than -0.4. Enter Not met if it equals or exceeds that cut-off.

Some entries whose results are on file:
molecule	label value
O=C(c1ccccn1)N1CC2(C1)[C@@H](c1ccccc1)[C@@H](CO)N2C(=O)C1CCCCC1	Met
CCCNC(=O)N1[C@H](CNC(=O)c2cccc(F)c2)[C@H](c2ccccc2)[C@@H]1CO	Not met
Cn1cnc(S(=O)(=O)N2CCCCN3[C@@H](CO)[C@@H](c4ccc(C#CC5CCCC5)cc4)[C@@H]3C2)c1	Not met
N#C[C@H]1[C@H](c2ccccc2-c2ccc(F)cc2)[C@H](CO)N1C(=O)Cc1ccncc1	Not met
CCC(=O)N1CCCCN2[C@H](C1)[C@@H](c1ccc(/C=C/c3ccccc3)cc1)[C@@H]2CO	Met
OC[C@@H]1[C@H](c2ccc(C#Cc3ccccc3)cc2)[C@@H]2CN(Cc3cncnc3)CCCCN12	Met
COCCNC(=O)C[C@H]1CC[C@@H]2[C@H](COc3ccc(NC(=O)Nc4cccc(F)c4)cc3C(=O)N2C)O1	Met
O=C(c1ccccc1)N1CC(=O)N2[C@@H](CO)[C@H](c3ccc(C#CCC4CCCC4)cc3)[C@@H]2C1	Not met

Hello, is z-score of the following molecule strictly smaller than -0.4? O=C(C1CCC1)N1CC(=O)N2[C@@H](CO)[C@@H](c3ccc(C#Cc4cccc(F)c4)cc3)[C@@H]2C1
Met

Hello, is z-score of the following molecule strictly smaller than -0.4? O=C(c1cnccn1)N1CC(=O)N2[C@H](C1)[C@@H](c1ccc(C#CC3CCCCC3)cc1)[C@@H]2CO
Not met

Hello, is z-score of the following molecule strictly smaller than -0.4? O=C(Cc1cccnc1)N1CC(=O)N2[C@H](CO)[C@@H](c3ccc(/C=C/c4ccccc4)cc3)[C@H]2C1
Met

---

measured on: Insulin-degrading enzyme (Homo sapiens)
protocol summary: exo-site inhibitors of human IDE, primary screen, biochemical, fluorescence anisotropy, probe displacement (AID 1259349);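 further: His-tagged human IDE residues 42-1019 made in E. coli with 30 nM FL-6b probe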
experimental conditions: purified IDE, FL-6b probe fluorescence polarization; at 20 µM
Hit rate of the full screen: of about 17,000 compounds, about 1,100 (6.5%) were called active.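 Rule for the calls: active = z-score of -3 or lower, meaning strong loss of probe binding signal; inactive = the rest.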 Many of the other results were omitted from the sample, so actives are more common in it than they were.
Return exactly one item of Yes for active, No for inactive

molecule	measured on	label value
O=C(C1CCCCC1)N1CC(=O)N2[C@H](CO)[C@@H](c3ccc(-c4ccccc4F)cc3)[C@@H]2C1	Insulin-degrading enzyme (Homo sapiens)	Yes

State the result this test recorded for COCC(=O)N1[C@H](CO)[C@H](c2ccccc2-c2ccc(C)cc2)[C@@H]1C#N .
No

State the result this test recorded for COc1cccc(-c2ccc([C@@H]3[C@@H](CO)N(C(=O)c4ccccn4)[C@H]3C#N)cc2)c1 .
Yes

State the result this test recorded for N#C[C@H]1[C@H](c2ccc(C#Cc3ccc(F)cc3)cc2)[C@@H](CO)N1C(=O)C1CCCC1 .
No

State the result this test recorded for CCCC#Cc1ccc([C@H]2[C@@H](CO)N(C(=O)C3CC3)[C@H]2C#N)cc1 .
No

State the result this test recorded for CCN(C[C@H]1[C@H](c2ccc(-c3ccccc3)cc2)[C@H](CO)N1CC1CC1)C(C)=O .
No

State the result this test recorded for CC(C)C#Cc1ccc([C@H]2[C@H](CO)N3CCCCN(C(=O)c4ccc(F)cc4)C[C@@H]23)cc1 .
No

State the result this test recorded for O=C(C1CCCC1)N1CC(=O)N2[C@H](CO)[C@H](c3ccc(Br)cc3)[C@H]2C1 .
No

State the result this test recorded for N#C[C@H]1[C@H](c2ccc(-c3ccccc3)cc2)[C@@H](CO)N1C(=O)Cc1ccccc1 .
No

Values were extracted from PubChem BioAssay AID1259349.
